Tested on: SF-295 CNS
procedure_text: NCI tumour cell line growth inhibition, 48 h
quantity_kind: TGI

Illustrative cases are given below, each with its answer.
{"molecule": "CO[C@]12CC(=O)C3(C(C[C@H]4CC5CCC6=CC(=O)CC[C@]6(OC(C)=O)C5C[C@@]43C)C1)C1C[C@H]3[C@@H]4CCC5=CC(=O)CC[C@]5(OC(C)=O)[C@H]4CC[C@]3(C)C12 (stereo not given in full)", "TGI": "> 100 µM"}
{"molecule": "CN(CC(=O)O)c1ncc2c(n1)-c1ccccc1OC2c1ccccc1 (stereo not given)", "TGI": "> 100 µM"}
{"molecule": "CC1(C)C[C@H]2[C@H](O)C(CO)=C3C(=O)[C@@H](O)[C@]3(C)[C@H]2C1", "TGI": "> 100 µM"}
{"molecule": "COc1ccc(NCC#N)cc1", "TGI": "> 100 µM"}
{"molecule": "CCOP(=O)(/C=C/n1ccc(=O)[nH]c1=O)OCC", "TGI": "> 100 µM"}
{"molecule": "COc1cc([C@@H]2c3cc4c(cc3[C@@H](NC(=O)c3cccc(N)c3)C3COC(=O)[C@@H]32)OCO4)cc(OC)c1O (stereo not given in full)", "TGI": "5.13 µM"}
{"molecule": "CCC#CCCCCCCCCC(F)C(=O)O (stereo not given)", "TGI": "> 100 µM"}
{"molecule": "CC(=O)c1c(-c2ccco2)c(C#N)c(=S)n(C2OC(CO)C(O)C(O)C2O)c1-c1ccccc1 (stereo not given)", "TGI": "> 100 µM"}

**Query** Identify the reported TGI for the following entry. "CCCCCCCCNC(=O)C1=C(C)NC(C)=C(C(=O)NCCCCCCCC)C1"
**Result** > 100 µM

**Query** Identify the reported TGI for the following entry. "C#CC[N+](CCO)(CCO)CCCCCCCCCCCCCCCCCC"
**Result** 24.1 µM

###

# TGI values compiled below
System: SN12C renal
procedure_text: NCI tumour cell line growth inhibition, 48 h
Reply numerically in µM, unit not repeated.

{"smiles_data": "CN1CN(c2ccccc2)C2(CCN(Cc3nc4ccccc4s3)CC2)C1=O", "value": 31.7}
{"smiles_data": "CN(CCO)C1CCN(c2ccc(Nc3ncc4c5ccnc(F)c5n(C5CCCC5)c4n3)nc2)CC1", "value": 31.5}
{"smiles_data": "Cc1nn(-c2ccccc2)c(-n2ccnc2)c1/C=N/Nc1nc(-c2ccc(Cl)c(Cl)c2)cs1", "value": 20.1}

Now for another entry.
**Query** Identify the reported TGI for the following entry. "CCN(CC)CCn1c(=O)c2ccccc2n2c3c(=O)n(C)c(=O)n(C)c3nc12"
**Result** 10.2

###

Tested on: RXF 393 renal
procedure_text: NCI tumour cell line growth inhibition, 48 h
# TGI values compiled below
Reply numerically in µM, unit not repeated.

Illustrative cases are given below, each with its answer.
{"compound": "CCCCN(CCCC)CC(O)c1ccc(OCc2ccccc2)c2ccccc12 (stereo not given)", "target_system": "RXF 393 renal", "TGI, µM": 4.93}
{"compound": "Cn1c2ccccc2c(=NNc2ccc(S(N)(=O)=O)cc2)c2ccccc21", "target_system": "RXF 393 renal", "TGI, µM": 43.7}
{"compound": "CC(=O)OCC1OC(NC(=S)CCSc2nc3ccccc3c(=O)n2-c2ccccc2)C(OC(C)=O)C(OC(C)=O)C1OC(C)=O (stereo not given)", "target_system": "RXF 393 renal", "TGI, µM": 58.2}
{"compound": "COC(=O)c1nc(-c2ccc(Cl)c(Cl)c2)nc2ccc(Cl)cc12", "target_system": "RXF 393 renal", "TGI, µM": 63.5}
{"compound": "CN(CCO)C1CCN(c2ccc(Nc3ncc4c5ccnc(F)c5n(C5CCCC5)c4n3)nc2)CC1", "target_system": "RXF 393 renal", "TGI, µM": 16.8}

Now for another entry.
**Query** Identify the reported TGI for the following entry. "CCN(CC)CCn1c(N)c(-c2nc3ccccc3n2C)c2nc(C#N)c(C#N)nc21"
**Result** 4.46
